Ref: ChEMBL document CHEMBL3784917

- Target System: Lysine-specific demethylase 4A (Homo sapiens, UniProt O75164)
- Sequence (O75164 whole entry): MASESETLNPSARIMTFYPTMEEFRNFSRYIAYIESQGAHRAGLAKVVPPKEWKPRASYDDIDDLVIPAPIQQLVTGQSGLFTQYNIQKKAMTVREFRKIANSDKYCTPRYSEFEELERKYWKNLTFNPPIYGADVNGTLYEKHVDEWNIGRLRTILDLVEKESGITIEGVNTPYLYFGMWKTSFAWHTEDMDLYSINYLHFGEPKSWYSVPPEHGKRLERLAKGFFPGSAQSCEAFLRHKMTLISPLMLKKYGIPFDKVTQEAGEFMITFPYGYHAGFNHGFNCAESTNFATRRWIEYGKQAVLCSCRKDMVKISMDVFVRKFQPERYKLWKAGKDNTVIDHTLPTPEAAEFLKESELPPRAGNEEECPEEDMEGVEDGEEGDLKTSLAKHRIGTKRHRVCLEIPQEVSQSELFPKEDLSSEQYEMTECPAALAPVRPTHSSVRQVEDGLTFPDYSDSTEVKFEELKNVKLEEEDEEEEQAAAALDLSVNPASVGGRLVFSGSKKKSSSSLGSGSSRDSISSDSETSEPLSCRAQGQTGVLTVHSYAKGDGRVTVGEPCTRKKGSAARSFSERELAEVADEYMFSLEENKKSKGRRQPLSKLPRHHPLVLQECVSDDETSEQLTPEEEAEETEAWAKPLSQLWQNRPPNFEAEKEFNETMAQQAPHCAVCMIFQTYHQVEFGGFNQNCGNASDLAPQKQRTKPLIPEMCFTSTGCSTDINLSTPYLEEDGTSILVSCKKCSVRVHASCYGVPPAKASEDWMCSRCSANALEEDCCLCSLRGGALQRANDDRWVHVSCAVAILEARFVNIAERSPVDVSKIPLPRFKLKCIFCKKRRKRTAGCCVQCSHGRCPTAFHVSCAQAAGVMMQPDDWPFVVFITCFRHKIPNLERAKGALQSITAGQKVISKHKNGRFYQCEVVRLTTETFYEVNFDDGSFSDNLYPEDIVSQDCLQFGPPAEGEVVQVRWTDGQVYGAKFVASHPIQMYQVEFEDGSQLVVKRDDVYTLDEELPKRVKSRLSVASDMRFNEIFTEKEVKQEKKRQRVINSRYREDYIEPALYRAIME
- Measurement Protocol: Inhibition of full-length FLAG-tagged KDM4A (unknown origin) expressed in human HeLa cells assessed as increase in H3K9me3 level after 24 hrs by DAPI staining based immunofuorescence assay
- Format: cell-based
Readout Kind: EC50
Just the number plus its unit, please.

Prompt: State its EC50: Cc1ccsc1C(NC(=O)c1ccccc1)c1cc(Cl)c2cccnc2c1O (racemic)
Response: 9 µM

* * *

- Target System: Inhibitor of growth protein 2 (Homo sapiens, UniProt Q9H160)
- Sequence (Q9H160 whole entry): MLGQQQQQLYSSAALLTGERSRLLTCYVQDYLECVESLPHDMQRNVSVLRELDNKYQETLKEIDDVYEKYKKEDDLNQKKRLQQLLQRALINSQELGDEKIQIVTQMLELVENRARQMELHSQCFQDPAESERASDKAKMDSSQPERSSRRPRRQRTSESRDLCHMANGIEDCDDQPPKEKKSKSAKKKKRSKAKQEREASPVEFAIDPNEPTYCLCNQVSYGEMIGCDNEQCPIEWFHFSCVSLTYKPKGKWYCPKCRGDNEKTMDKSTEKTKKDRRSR
Readout Kind: IC50 (µM)
One number for each entry, in µM.

Prompt: State its IC50: CCCCc1oc2ccccc2c1C(=O)c1cc(I)c(OCCC[N+](C)(C)C)c(I)c1
Response: 105
